// reported inhibition for each item listed
PROCEDURE TEXT: Shh-driven Gli reporter inhibition – luminescence, Shh-LIGHT2 cells, Gli-luciferase, primary screen (AID 2313);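 note: pathway switched on by Shh-conditioned medium diluted 1 in 25 in low serum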
CONDITION CONTEXT: 30 h, hits give high values
Out of some 22,000 compounds screened, about 460 (2.1%) were called active. Roughly 2% stayed inconclusive and do not appear here. The sample as a whole holds a higher share of actives than the screen did.
The answer is to be given in %; state only the numeric part.

Examples with their reported inhibition follow.
COc1ccc(NC(=O)N(C)C[C@@H]2OCCCC[C@@H](C)Oc3ccc(NS(=O)(=O)c4c(C)noc4C)cc3C(=O)N([C@H](C)CO)C[C@@H]2C)cc1 :: -43
Cc1ccoc1CC[N+](C)(C)C :: -11.8
C=C1C(=O)O[C@H]2C3=C(C)C[C@H](OC(C)=O)C[C@]3(C)CC[C@@H]12 :: -2.37

## Task Request the reported inhibition associated with C[C@H](CO)N1C[C@H](C)[C@H](CN(C)Cc2ccc3c(c2)OCO3)Oc2c(cccc2N(C)C)C1=O
## Result -27.6

## Task One more compound: C[C@@H]1CN([C@@H](C)CO)C(=O)c2cc(NC(=O)c3ccncc3)ccc2O[C@H]1CN(C)Cc1ccc(C(=O)O)cc1
## Result 13.9

## Task One more compound: Cc1ccc(S(=O)(=O)N(C)C[C@@H]2Oc3ccc(NS(=O)(=O)c4cn(C)cn4)cc3C(=O)N([C@@H](C)CO)C[C@H]2C)cc1
## Result -8.67

## Task One more compound: COc1ccc(S(=O)(=O)Nc2ccc3c(c2)CC(=O)N([C@H](C)CO)C[C@@H](C)[C@@H](CN(C)S(=O)(=O)c2ccc(F)cc2)O3)cc1
## Result -24.3

## Task One more compound: C[C@H]1CN([C@@H](C)CO)C(=O)c2cccc(NS(=O)(=O)c3ccc(F)cc3)c2O[C@@H]1CN(C)CC1CC1
## Result -16.6

## Task One more compound: COc1ccc(S(=O)(=O)N(C)C[C@@H]2Oc3ccc(NC(=O)CCN4CCOCC4)cc3CC(=O)N([C@@H](C)CO)C[C@@H]2C)cc1
## Result 12.6

====

PROCEDURE TEXT: Shh-driven Gli reporter inhibition – luminescence, Shh-LIGHT2 cells, Gli-luciferase, primary screen (AID 2313);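 note: pathway switched on by Shh-conditioned medium diluted 1 in 25 in low serum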
CONDITION CONTEXT: 30 h, hits give high values
The campaign covered roughly 22,000 compounds. About 460 (2.1%) were called active. Inconclusive results (about 2%) are left out. The entries come from a sample that favours actives as a whole.
VALUE KIND: inhibition (%)
The answer is to be given in %; state only the numeric part.

C[C@H]1CN([C@@H](C)CO)C(=O)Cc2cc(NC(=O)CCC(F)(F)F)ccc2O[C@H]1CN(C)C(=O)NC1CCCCC1 :: -30.3
C[C@@H]1CN([C@@H](C)CO)C(=O)c2cccc(NC(=O)Nc3ccc(F)cc3)c2O[C@H]1CN(C)Cc1ccc(-c2ccccc2)cc1 :: 2.55
Cc1noc(C)c1NC(=O)Nc1ccc2c(c1)C(=O)N([C@@H](C)CO)C[C@H](C)[C@H](CN(C)S(=O)(=O)c1ccc(Cl)cc1)O2 :: -26.2
C[C@H](CO)N1C[C@H](C)[C@@H](CN(C)S(=O)(=O)c2ccc(Cl)cc2)Oc2ccc(NS(=O)(=O)c3cn(C)cn3)cc2C1=O :: 25.4
C[C@@H]1CN([C@H](C)CO)C(=O)c2cc(NS(=O)(=O)c3ccc(F)cc3)ccc2O[C@H]1CN(C)C(=O)Nc1cccc2ccccc12 :: -17
C[C@H]1CN([C@@H](C)CO)C(=O)Cc2cc(NC(=O)C3CC3)ccc2O[C@H]1CN(C)S(=O)(=O)c1ccc(Cl)cc1 :: 30.4

Alright, here's another compound for you.
## Task Request the reported inhibition associated with C[C@H](CO)N1C[C@H](C)[C@@H](CN(C)Cc2ccccc2)Oc2ccc(NC(=O)CCCN(C)C)cc2C1=O
## Result -0.759
